ASSAY EXPLANATION: in vivo
CONDITION DETAILS: mouse, po, mice, 7 days observation, Litchfield-Wilcoxon
Protocol: (1) Acute toxicity on mice The acute toxicity is determined on mice of both sex (CFLP breed, body weight 18 to 22 g). For each dosis 6 animals are employed. The compounds tested are administered orally in a volume of 20 ml/kg body weight. After the administration the animals are observed for 7 days. During this period the animals are fed with standard mouse feed and water ad libitum. The toxicity values are determined according to Litchfield-Wilcoxon's method.
// assign true if LD50 at 168 h falls strictly below 700 mg/kg, else false (ties count as false)

In plain terms, does CCS(=O)(=O)O.CCS(=O)(=O)O.COc1ccc(N2CCSC2=N)c(N)c1 [Compound 7 (diethanesulfonate)] come in under 700 mg/kg for LD50 at 168 h? false

For N=C1SCCN1c1ccc(N)cc1 then? true

Check Cl.N=C1SCCN1c1ccc(Cl)cc1[N+](=O)[O-] too. false

Field entry: CC1CSC(=N)N1c1ccc(Cl)cc1N.Cl.Cl (stereo not drawn) true

Record: Cl.Cl.N=C1SCCN1c1cc(Cl)ccc1N false

Further, for COc1ccc(N2CCSC2=N)c(N)c1.Cl.Cl ? false

Try Br.COc1ccc(N2CCSC2=N)c([N+](=O)[O-])c1 next. true

Could you do the same for Cl.N=C1SCCN1c1ccc(C(F)(F)F)cc1[N+](=O)[O-] , please? false

* * *

Assign Therapeutical index (potentiation of yohimbine toxicity) to each entry below.
System: yohimbine toxicity
ASSAY EXPLANATION: animal or person
Format: in vivo
CONDITION DETAILS: LD50 and ED50 yohimbine toxicity, mice

Form field: Therapeutical index (potentiation of yohimbine toxicity) recorded for Cl.Cl.N=C1SCCN1c1cc(Cl)ccc1N with yohimbine toxicity (enter value) 16

And the next one, CCS(=O)(=O)O.CCS(=O)(=O)O.N=C1SCCN1c1ccc(Cl)cc1N ? 45.5

Also CN(C)CCC=C1c2ccccc2CCc2ccccc21 [Amitriptylin, reference compound] ? 18

Can you handle N=C1SCCN1c1ccc(N)cc1 next? 20.0

Thanks! And CC1CN(c2ccc(Cl)cc2N)C(=N)S1.CCS(=O)(=O)O (stereo not drawn) ? 13.3

Also check Cc1ccc(N2CCSC2=N)c(N)c1 25

* * *

Tested on: pentatetrazole spasm
ASSAY EXPLANATION: animal or person
Assay type: in vivo
CONDITION DETAILS: LD50 and ED50 pentatetrazole spasm, mice
READOUT NAME: Therapeutical index (inhibition of pentatetrazole spasm)

What does the data say about its Therapeutical index (inhibition of pentatetrazole spasm)? Entry: Cl.Cl.N=C1SCCN1c1cc(Cl)ccc1N 10.2

# iterate: CC1CN(c2ccc(Cl)cc2N)C(=N)S1.CCS(=O)(=O)O (stereo not shown) 40

One more compound: Cl.N=C1SCCN1c1ccc(Cl)cc1[N+](=O)[O-] 16.6

Note, next up: CC1CSC(=N)N1c1ccc(Cl)cc1N.Cl.Cl (stereo not shown) 25.6
